src = the supplement of paper PMC10567573

B1: PTPRD (parent)
chain: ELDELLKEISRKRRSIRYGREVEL

# Variants of: B1
# assay_text: protein stability index of a GFP-peptide fusion (GPS, HEK-293T) (PSI 1-6); higher = more stable;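 note: lentivirally expressed fusions sorted by FACS into six bins by GFP to DsRed ratio, PSI derived from sequencing read proportions per bin multiplied by bin number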
# condition_context: c terminus: a fixed tail appended
readout_type: protein stability index
Please reply with the number alone, leaving off any unit.

Prompt line: Param item = E4L ; retrieve measured protein stability index.
Response line: 2.19

Prompt line: Repeat for the following variant: I16G
Response line: 3.21

Prompt line: I16V , same question.
Response line: 2.35

Prompt line: What about this variant? E1R
Response line: 2.17

Prompt line: Now give it for S15I too.
Response line: 2.29

Prompt line: Then this variant: L24A
Response line: 2.69

Prompt line: Would you mind doing E23I as well?
Response line: 2.38

Prompt line: Now consider R14P and answer again.
Response line: 2.64

Prompt line: Follow-up item: I16M
Response line: 2.54

Prompt line: Then what about the variant L24M ?
Response line: 2.73

Prompt line: Now this one: R14A
Response line: 2.02

Prompt line: Then this variant: K12C
Response line: 2.49

Prompt line: Same question for S15T please.
Response line: 2.99

Prompt line: Another: R20N
Response line: 2.8

Prompt line: And I9E ?
Response line: 4.46

Prompt line: Next variant up: L24Y
Response line: 2.54

Prompt line: // query: R11A
Response line: 2.01

Prompt line: Cool, now D3K
Response line: 2.38

Prompt line: Follow-up item: D3L
Response line: 1.63

Prompt line: R20E , same question.
Response line: 2.71

Prompt line: Then this variant: E1V
Response line: 1.93

Prompt line: Moving on to R14L
Response line: 3.77

Prompt line: Also need R13C , thanks.
Response line: 1.8

Prompt line: Further, for S10H ?
Response line: 2.68

Prompt line: Next entry: E4T
Response line: 1.88

Prompt line: Query L5F next
Response line: 2.69

Prompt line: Please answer likewise for E1A
Response line: 2.54

Prompt line: Next variant up: Y18V
Response line: 1.95

Prompt line: How about this variant: L2K
Response line: 4.09

Prompt line: Thanks! And I16R ?
Response line: 1.72

Prompt line: Request: V22N
Response line: 2.35

Prompt line: E4R ?
Response line: 2.16

Prompt line: Moving on to the next variant: L5W
Response line: 2.35

Prompt line: Consider next the variant K7W in the same way.
Response line: 2.19

Prompt line: Next variant up: R17W
Response line: 1.85

Prompt line: // same read-out, input: I9P
Response line: 3.81

Prompt line: Then K12Y ?
Response line: 1.55

Prompt line: Quick one: L24K
Response line: 2.33

Prompt line: Param item: E8M
Response line: 2.37

Prompt line: Request: Y18I
Response line: 2.35

Prompt line: Next up: I16F
Response line: 1.81

Prompt line: Another variant: E21H
Response line: 2.06

Prompt line: Next entry: G19V
Response line: 3.13

Prompt line: Same lookup for I16P , please.
Response line: 2.43

Prompt line: Try L24T next.
Response line: 2.86

Prompt line: Let us now turn to E23W
Response line: 2.09
